protocolSummary: Study 9 replicate crossover bioequivalence study
Type: in vivo, human
measurementSetup: human, plasma, oral
readoutName: AUC(0-inf)

| compound | result |
| --- | --- |
| O=C1c2cccc3c2[C@H](CCC3)CN1[C@@H]1CN2CCC1CC2 [palonosetron] | 48.2 ng·h/mL |

* * *

protocolSummary: Study 9 replicate crossover bioequivalence study
Assay type: in vivo, human
measurementSetup: human, plasma, oral
Each entry below lists one item and its recorded half-life value.

| smilesText | unitLabel | half-life |
| --- | --- | --- |
| O=C1c2cccc3c2[C@H](CCC3)CN1[C@@H]1CN2CCC1CC2 | days | 1.55 |
| Cc1ccccc1-c1cc(N2CCN(C)CC2)ncc1N(C)C(=O)C(C)(C)c1cc(C(F)(F)F)cc(C(F)(F)F)c1 | days | 3.19 |
